From: the MegaScale stability set (Tsuboyama et al. 2023)

B1: r11_951_TrROS_Hall (parent)
chain: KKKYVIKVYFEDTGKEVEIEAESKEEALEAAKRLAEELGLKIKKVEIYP

variants of: B1; test: folding stability dG (cDNA display proteolysis); higher = more stable; settings: PBS, room temperature
measurement_type: folding stability dG (kcal/mol)
The figure you give is taken to be in kcal/mol; do not add the unit.

Past entries and their recorded results:
>  <mutation_name>
Y4L

>  <units_of_measure>
kcal/mol

>  <folding stability dG>
3.93

$$$$
>  <mutation_name>
V17G

>  <units_of_measure>
kcal/mol

>  <folding stability dG>
4.05

$$$$
>  <mutation_name>
G39L

>  <units_of_measure>
kcal/mol

>  <folding stability dG>
4.06

$$$$

Which measured folding stability dG value corresponds to `G39D` ?
3.99

Param item: `Y48C`
4.46

Okay, and `K44S` ?
4.42

Field entry: `F10V`
2.98

Then this variant: `V8D`
1.26

Now this one: `D12Q`
4.38

Repeat with `K41G`
4.07

Could you do the same for `L34I` , please?
4.27

Same lookup for `K43V` , please.
4.22

Now the variant `G39E`
4.18

Please answer likewise for `K32Y`
4.9

Another: `K15L`
4.28

Next variant: `K24M`
4.46

What about `A27N` ?
2.01

Field entry: `A30E`
4.31

Follow-up item: `E29Q`
4.22

// same read-out, input: `Y48K`
4.2

Let us now turn to `L38R`
4.34

Now try `K1L` .
4.52

What do we get for `E36T` ?
4.6

Now the same for `A35I`
3.99

And `A21I` ?
4.44

Would you mind doing `E29I` as well?
4.48

One more variant: `K24Q`
4.38
